Experiment: Half life in ICR mouse at 2 mg/kg, po and 1 mg/kg, iv
Type: ADME, organism-based
Settings: in vivo
PROPERTY: half-life (h)

STRUCTURE | PROPERTY | EXPERIMENTAL_VALUE
Cc1cc(NC(=O)c2ccc(NS(=O)(=O)CCO)cc2C2=CCC3(CC2)CC3)nc(N2CCC(F)(F)CC2)c1 | half-life | 4.6

---

Test: Plasma protein binding in mouse
Format: ADME, cell-free
Conditions: read-out: PPB (converted)
PROPERTY: fraction unbound

STRUCTURE | PROPERTY | EXPERIMENTAL_VALUE
Cc1cc(NC(=O)c2ccc(NS(=O)(=O)CCO)cc2C2=CCC3(CC2)CC3)nc(N2CCC(F)(F)CC2)c1 | fraction unbound | 0.0011

---

Assay: AUC in Balb/c mouse at 30 mg/kg, po
Format: ADME, organism-based
Conditions: in vivo

COMPOUND | UNIT_ABBREVIATION | AUC
Cc1cc(NC(=O)c2ccc(NS(=O)(=O)CCO)cc2C2=CCC3(CC2)CC3)nc(N2CCC(F)(F)CC2)c1 | ng·h/mL | 54400
Cc1cc(NC(=O)c2ccc(NS(=O)(=O)CCO)cc2N2CCC3(CC2)CC3)nc(N2CCC(F)(F)CC2)n1 [AMG-650] | ng·h/mL | 110000

---

Assay: Plasma protein binding in monkey
Assay type: ADME, cell-free, Macaca mulatta
Conditions: rhesus monkey, read-out: PPB (converted)

STRUCTURE | fraction unbound
Cc1cc(NC(=O)c2ccc(NS(=O)(=O)CCO)cc2C2=CCC3(CC2)CC3)nc(N2CCC(F)(F)CC2)c1 | 0.0008

---

Assay: Cmax in Sprague-Dawley rat at 2 mg/kg, po and 1 mg/kg, iv
Format: ADME, organism-based
Settings: in vivo
PROPERTY: Cmax (ng/mL)

STRUCTURE | EXPERIMENTAL_VALUE
Cc1cc(NC(=O)c2ccc(NS(=O)(=O)CCO)cc2C2=CCC3(CC2)CC3)nc(N2CCC(F)(F)CC2)c1 | 552
O=C(Nc1cncc(N2CCC(F)(F)CC2)n1)c1ccc(NS(=O)(=O)CCO)cc1C1=CCC2(CC1)CC2 | 140
Cc1cc(NC(=O)c2ccc(NS(=O)(=O)CCO)cc2C2=CCC3(CC2)CC3)nc(N2CCC(F)(F)CC2)n1 | 158
O=C(Nc1ccc(F)c(N2CCC(F)(F)CC2)n1)c1ccc(NS(=O)(=O)CCO)cc1C1=CCC2(CC1)CC2 | 424
O=C(Nc1cccc(N2CCC(F)(F)CC2)n1)c1ccc(NS(=O)(=O)CCO)cc1C1=CCC2(CC1)CC2 | 285

---

Assay: Cmax in Beagle dog at 2 mg/kg, po and 1 mg/kg, iv
Assay type: ADME, organism-based, Canis lupus familiaris
Details: in vivo
PROPERTY: Cmax (ng/mL)

STRUCTURE | UNIT_ABBREVIATION | EXPERIMENTAL_VALUE
Cc1cc(NC(=O)c2ccc(NS(=O)(=O)CCO)cc2C2=CCC3(CC2)CC3)nc(N2CCC(F)(F)CC2)c1 | ng/mL | 1150

---

Experiment: Plasma protein binding in rat
Type: ADME, cell-free
Settings: read-out: PPB (converted)

STRUCTURE | fraction unbound
Cc1cc(NC(=O)c2ccc(NS(=O)(=O)CCO)cc2C2=CCC3(CC2)CC3)nc(N2CCC(F)(F)CC2)c1 | 0.0023

---

Assay: Half life in Balb/c mouse at 30 mg/kg, po
Format: ADME, organism-based
Details: in vivo

MOLECULE | half-life
Cc1cc(NC(=O)c2ccc(NS(=O)(=O)CCO)cc2N2CCC3(CC2)CC3)nc(N2CCC(F)(F)CC2)n1 [AMG-650] | 7.98 h
Cc1cc(NC(=O)c2ccc(NS(=O)(=O)CCO)cc2C2=CCC3(CC2)CC3)nc(N2CCC(F)(F)CC2)c1 | 6.38 h

---

Test: Half life in Balb/c mouse at 10 mg/kg, po
Assay type: ADME, organism-based
Settings: in vivo

STRUCTURE | UNIT_ABBREVIATION | half-life
Cc1cc(NC(=O)c2ccc(NS(=O)(=O)CCO)cc2C2=CCC3(CC2)CC3)nc(N2CCC(F)(F)CC2)c1 | h | 3.38

---

Experiment: Solubility in compound in FassIF
Format: physicochemical

STRUCTURE | solubility / µM
Cc1cc(NC(=O)c2ccc(NS(=O)(=O)CCO)cc2C2=CCC3(CC2)CC3)nc(N2CCC(F)(F)CC2)c1 | 18.5

---

Experiment: Cmax in ICR mouse at 2 mg/kg, po and 1 mg/kg, iv
Format: ADME, organism-based
Settings: in vivo

STRUCTURE | UNIT_ABBREVIATION | Cmax
Cc1cc(NC(=O)c2ccc(NS(=O)(=O)CCO)cc2C2=CCC3(CC2)CC3)nc(N2CCC(F)(F)CC2)c1 | ng/mL | 393

---

Assay: Plasma protein binding in human
Type: ADME, cell-free
Details: read-out: PPB (converted)

STRUCTURE | fraction unbound
Cc1cc(NC(=O)c2ccc(NS(=O)(=O)CCO)cc2C2=CCC3(CC2)CC3)nc(N2CCC(F)(F)CC2)c1 | 0.0004

---

Experiment: Half life in Beagle dog at 2 mg/kg, po and 1 mg/kg, iv
Assay type: ADME, organism-based, Canis lupus familiaris
Settings: in vivo

STRUCTURE | half-life [h]
Cc1cc(NC(=O)c2ccc(NS(=O)(=O)CCO)cc2C2=CCC3(CC2)CC3)nc(N2CCC(F)(F)CC2)c1 | 7.6

---

Assay: Oral bioavailability in Sprague-Dawley rat at 2 mg/kg
Type: ADME, organism-based
Settings: in vivo

STRUCTURE | UNIT_ABBREVIATION | bioavailability
Cc1cc(NC(=O)c2ccc(NS(=O)(=O)CCO)cc2C2=CCC3(CC2)CC3)nc(N2CCC(F)(F)CC2)n1 | % | 69.5
Cc1cc(NC(=O)c2ccc(NS(=O)(=O)CCO)cc2C2=CCC3(CC2)CC3)nc(N2CCC(F)(F)CC2)c1 | % | 73
O=C(Nc1cccc(N2CCC(F)(F)CC2)n1)c1ccc(NS(=O)(=O)CCO)cc1C1=CCC2(CC1)CC2 | % | 40.4
O=C(Nc1ccc(F)c(N2CCC(F)(F)CC2)n1)c1ccc(NS(=O)(=O)CCO)cc1C1=CCC2(CC1)CC2 | % | 67.9
O=C(Nc1cncc(N2CCC(F)(F)CC2)n1)c1ccc(NS(=O)(=O)CCO)cc1C1=CCC2(CC1)CC2 | % | 22.9

---

Assay: Permeability of compound across basolateral to apical side in human Caco-2 cells
Assay type: ADME, cell-based
Details: read-out: permeability
PROPERTY: Papp B→A

STRUCTURE | PROPERTY | EXPERIMENTAL_VALUE
Cc1cc(NC(=O)c2ccc(NS(=O)(=O)CCO)cc2C2=CCC3(CC2)CC3)nc(N2CCC(F)(F)CC2)c1 | Papp B→A | 0.49 ×10⁻⁶ cm/s

---

Assay: Permeability of compound across apical to basolateral side in human Caco-2 cells
Assay type: ADME, cell-based
Settings: read-out: permeability

STRUCTURE | Papp A→B
Cc1cc(NC(=O)c2ccc(NS(=O)(=O)CCO)cc2C2=CCC3(CC2)CC3)nc(N2CCC(F)(F)CC2)c1 | < 0.01 ×10⁻⁶ cm/s

---

Target: Kinesin-like protein KIF11 (Homo sapiens, UniProt P52732)
Sequence (P52732 whole entry): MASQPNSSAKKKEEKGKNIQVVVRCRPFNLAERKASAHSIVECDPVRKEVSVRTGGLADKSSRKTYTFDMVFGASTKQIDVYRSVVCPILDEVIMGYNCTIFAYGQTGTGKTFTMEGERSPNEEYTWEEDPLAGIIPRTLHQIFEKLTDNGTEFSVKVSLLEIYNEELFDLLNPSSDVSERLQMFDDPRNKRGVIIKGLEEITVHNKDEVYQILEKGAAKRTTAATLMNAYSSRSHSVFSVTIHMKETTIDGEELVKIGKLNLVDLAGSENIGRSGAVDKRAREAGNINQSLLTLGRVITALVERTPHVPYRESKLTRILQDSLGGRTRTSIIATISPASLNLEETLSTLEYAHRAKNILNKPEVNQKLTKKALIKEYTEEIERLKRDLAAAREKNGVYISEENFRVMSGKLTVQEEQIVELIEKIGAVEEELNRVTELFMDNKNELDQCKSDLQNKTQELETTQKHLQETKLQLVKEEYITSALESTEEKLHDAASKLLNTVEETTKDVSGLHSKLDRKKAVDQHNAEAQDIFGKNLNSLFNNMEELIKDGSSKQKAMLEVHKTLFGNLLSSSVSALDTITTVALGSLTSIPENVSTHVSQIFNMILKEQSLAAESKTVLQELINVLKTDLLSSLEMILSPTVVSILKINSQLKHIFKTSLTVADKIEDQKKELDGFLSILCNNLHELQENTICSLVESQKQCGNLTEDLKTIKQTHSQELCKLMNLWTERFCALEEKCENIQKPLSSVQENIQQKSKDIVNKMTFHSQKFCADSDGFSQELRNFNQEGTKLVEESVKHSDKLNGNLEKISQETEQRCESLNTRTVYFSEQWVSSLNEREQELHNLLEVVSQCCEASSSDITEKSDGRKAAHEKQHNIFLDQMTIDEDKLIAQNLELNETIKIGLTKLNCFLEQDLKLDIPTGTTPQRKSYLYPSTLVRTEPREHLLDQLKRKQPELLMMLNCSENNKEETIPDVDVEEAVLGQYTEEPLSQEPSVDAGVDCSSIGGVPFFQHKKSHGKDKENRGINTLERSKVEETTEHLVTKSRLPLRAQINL

STRUCTURE | IC50
Cc1cc(NC(=O)c2ccc(NS(=O)(=O)CCO)cc2C2=CCC3(CC2)CC3)nc(N2CCC(F)(F)CC2)n1 | > 30 µM
